// data source = ChEMBL document CHEMBL1201862

# Tested on: SK-MEL-5
# protocol: NCI tumour cell line growth inhibition, 48 h
Active and inactive are the calls of the source. Rule as the data show it: active = GI50 up to about 1.1 µM and inactive = higher.
For each of the compounds below, state its GI50.

# return recorded GI50 for input CC(C)C(Nc1c2ccccc2[n+]([O-])c2ccccc12)C(=O)O (stereo not drawn) 34.2 µM (inactive)

# return recorded GI50 for input Cc1nc2cc([N+](=O)[O-])ccc2c(NCCCN(C)C)c1C 10.1 µM (inactive)

# return recorded GI50 for input O=C(O)CCC(=O)N1c2ccccc2CC1c1c[nH]c2ccccc12 (stereo not drawn) > 100 µM (inactive)

* * *

# Tested on: UACC-62
# protocol: NCI tumour cell line growth inhibition, 48 h
The source made the active and inactive calls. Rule as the data show it: active = GI50 up to about 1.1 µM and inactive = higher.
measured-attribute: GI50

# return recorded GI50 for input CC1=NN(C(=O)Nc2ccc(Cl)cc2)C(=O)C2CCC(=O)N12 (stereo not drawn) 2.2 µM (inactive)

# return recorded GI50 for input COc1ccc(-c2cc(-c3ccccc3)c(C#N)c(=O)[nH]2)cc1 > 100 µM (inactive)

# return recorded GI50 for input CC(C)C(Nc1c2ccccc2[n+]([O-])c2ccccc12)C(=O)O (stereo not drawn) 57.3 µM (inactive)

# return recorded GI50 for input Cn1c(=O)c2[nH]cnc2n(CC(N)=O)c1=O > 100 µM (inactive)

# return recorded GI50 for input c1ccc(-c2nnn3c2NC2=C(CCCC2)C3c2ccccc2)cc1 (stereo not drawn) 16.4 µM (inactive)

# return recorded GI50 for input CC(=O)N1CCN(C23OC4(N5CCN(C(C)=O)CC5)C5C6CC(C7C6C4C72)C53)CC1 (stereo not drawn) > 100 µM (inactive)

# return recorded GI50 for input OCC(O)C(O)C(O)c1nn(-c2ccccc2)c2nc3cc(Cl)c(Cl)cc3nc12 (stereo not drawn) 28.8 µM (inactive)

# return recorded GI50 for input Cc1cc(N(CCC#N)CCC#N)ccc1/C=C(/NC(=O)/C=C/c1ccccc1)C(N)=O > 100 µM (inactive)

# return recorded GI50 for input CCOc1ccc(NC(=O)/C(Cc2nc3ccccc3nc2O)=N\O)cc1 > 100 µM (inactive)

# return recorded GI50 for input Cc1cc(-c2ccc(/N=N/c3ccc4c(S(=O)(=O)O)cc(S(=O)(=O)O)c(N)c4c3O)c(C)c2)ccc1/N=N/c1ccc2c(S(=O)(=O)O)cc(S(=O)(=O)O)c(N)c2c1O > 100 µM (inactive)

# return recorded GI50 for input O=C1OCCC1(Cc1ccc(Cl)cc1)Cc1ccc(Cl)cc1 > 100 µM (inactive)

# return recorded GI50 for input Cc1ccc(CCNC(=S)SCC(NC(=O)CCC(N)C(=O)O)C(=O)NCC(=O)O)cc1 (stereo not drawn) 1.41 µM (inactive)

# return recorded GI50 for input CCOC(=O)CCC(NC(=O)OCc1ccccc1)C(=O)NC(CCC(=O)OCC)C(=O)NC(CCC(=O)OCC)C(=O)NC(CCC(=O)OCC)C(=O)NC(CCC(=O)OCC)C(=O)NC(CCC(=O)OCC)C(=O)NC(CCC(=O)OCC)C(=O)OCC (stereo not drawn) > 100 µM (inactive)

* * *

# Tested on: EKVX
# protocol: NCI tumour cell line growth inhibition, 48 h
Active and inactive are the calls of the source. Cut-off read from the data, not from the text of the source: active = GI50 up to about 1.1 µM and inactive = higher.
For each of the compounds below, state its GI50.

Name the recorded GI50 of Nc1ccc(-c2nc3cc(F)ccc3s2)cc1CO , assay system EKVX. 17.8 µM (inactive)

Name the recorded GI50 of C[C@@]12CC[C@H]3[C@@H]4CCC(=O)N[C@@]4(C)CC[C@@H]3[C@@]1(C)CC[C@H](OC(=O)Cc1ccc(N(CCCl)CCCl)cc1)C2 , assay system EKVX. 16.4 µM (inactive)

Name the recorded GI50 of c1ccc2c(Nc3ncco3)cccc2c1 , assay system EKVX. > 10 µM (inactive)

Name the recorded GI50 of COc1ccc2c(c1)-c1nc(=S)n(CCN(C)C)c3ccc([N+](=O)[O-])c(c13)N2 , assay system EKVX. 1.97 µM (inactive)

Name the recorded GI50 of O=S(=O)(O)SCCNCCCCCC1CCCCC1 , assay system EKVX. 9.73 µM (inactive)

Name the recorded GI50 of O=C1c2ccccc2/C(=N\c2ccc3ccccc3c2)C1(C1=C(c2ccccc2)/C(=N/c2ccc3ccccc3c2)c2ccccc21)c1ccccc1 (stereo unspecified) , assay system EKVX. 28.8 µM (inactive)

Name the recorded GI50 of Cn1cc(S(=O)(=O)NC(=O)Nc2ccc(Cl)cc2)c(=O)c2ccc(Cl)cc21 , assay system EKVX. > 100 µM (inactive)

Name the recorded GI50 of COc1ccc(CNC(C)C(=O)O)cc1 (stereo unspecified) , assay system EKVX. > 100 µM (inactive)

Name the recorded GI50 of O=c1c2cc([N+](=O)[O-])ccc2n2n1CCCC2 , assay system EKVX. > 100 µM (inactive)

Name the recorded GI50 of Cc1nc(O)nc2nc3ccc(Cl)cc3c(NC(C)(CO)CO)c12 , assay system EKVX. 24.9 µM (inactive)

Name the recorded GI50 of COC(=O)C1=C(OC(=O)c2ccccc2)C(C(=O)OC)[C@]2(O)[C@@H](C(=O)OC)[C@H]1C[C@@H](c1ccccc1)[C@@H]2C(=O)OC (stereo partly specified) , assay system EKVX. 34 µM (inactive)

Name the recorded GI50 of c1cncc(C(Nc2cccc3cccnc23)Nc2cccc3cccnc23)c1 , assay system EKVX. 69.7 µM (inactive)

Name the recorded GI50 of CN(C)CCCn1c(Cn2nc3ccccc3n2)nc2cc(C(F)(F)F)ccc21 , assay system EKVX. 28.3 µM (inactive)

Name the recorded GI50 of O=C(Nc1noc(-c2ccccc2)n1)c1ccccc1CNc1noc(-c2ccccc2)n1 , assay system EKVX. 76.7 µM (inactive)

Name the recorded GI50 of CC(C)CC1c2[nH]c3ccccc3c2C[C@H]2C(=O)NC(Cc3c[nH]c4ccccc34)C(=O)N12 (stereo partly specified) , assay system EKVX. 16 µM (inactive)

Name the recorded GI50 of Clc1ccc(-c2nn3c(COc4ccc(OCc5nnc6sc(-c7ccc(Cl)cc7)nn56)c(Cl)c4)nnc3s2)cc1 , assay system EKVX. 27 µM (inactive)

* * *

# Test system: HOP-92
# protocol: NCI tumour cell line growth inhibition, 48 h
The source made the active and inactive calls. No stated cut-off is given here; in the data, active = GI50 up to about 1.1 µM and inactive = higher.
measured-attribute: GI50

# return recorded GI50 for input CC(=O)OC1CC(O)CC2=CCC3C4CCC(C(C)(O)C(O)CC5COC(=O)C5C)C4(C)CCC3C21C (centres undefined) > 25 µM (inactive)

# return recorded GI50 for input c1c2c(cc3c1OCO3)-c1cc3ccc4c(c3c[n+]1CC2)OCO4 [COPTISINE CHLORIDE] 5.57 µM (inactive)

# return recorded GI50 for input Cc1c(Cl)cccc1NC(=O)C(=O)C1C(=O)CC(C)(C)CC1=O > 100 µM (inactive)

# return recorded GI50 for input CCCCOC(=O)C1CN2C=CC=NC2=NC1(C(F)(F)F)C(F)(F)F (centres undefined) > 100 µM (inactive)

# return recorded GI50 for input CCOC(=O)c1sc2nc(SC)nc3c2c1NCN3C1CC1 > 100 µM (inactive)

# return recorded GI50 for input O=C(NO)c1ccc(OCc2cccc(Cl)c2)cc1 11.9 µM (inactive)

# return recorded GI50 for input COc1ccc(COC(=O)NNC(=O)C2CSC(c3ccccc3)N2C(C)=O)cc1 (centres undefined) > 100 µM (inactive)

# return recorded GI50 for input COc1c2c(cc3oc(C)cc(=O)c13)OC(=N)C(C(N)=O)C2CC(=O)c1ccc(N)cc1 (centres undefined) > 100 µM (inactive)

# return recorded GI50 for input Cc1cc(C)nc(NS(=O)(=O)c2ccc(Nc3c4ccccc4nc4c(C(=O)N5CCN(CCOS(C)(=O)=O)CC5)ccc(Cl)c34)cc2)n1 > 100 µM (inactive)

# return recorded GI50 for input CC(=O)OC1C(COC(N)=O)OC(n2c(-c3ccc(C)cc3)cc(-c3ccccc3)c(C#N)c2=O)C(OC(C)=O)C1OC(C)=O (centres undefined) 9.86 µM (inactive)

# return recorded GI50 for input Nc1onc2c1Cc1c(noc1N)-c1ccccc1-2 37.2 µM (inactive)

# return recorded GI50 for input Cc1c2ccccc2c(C)n2c1nc1ccccc12 12.2 µM (inactive)

# return recorded GI50 for input CCOC(=O)C(C(=O)OCC)=C1C=C(c2ccccc2)c2ccccc21 8.09 µM (inactive)

# return recorded GI50 for input CCOC(=O)c1c(N)sc2c1CC(C)CC2 (centres undefined) 27.7 µM (inactive)

* * *

# Tested on: HT-29
# protocol: NCI tumour cell line growth inhibition, 48 h
Active and inactive are the calls of the source. Cut-off read from the data, not from the text of the source: active = GI50 up to about 1.1 µM and inactive = higher.
Could you please pick one outcome from this set? label 1 for active, label 0 for inactive

Called result for CCOC(=O)COS(=O)(=O)C(F)(F)F label 0

Called result for BrC1(c2ccccc2)C[n+]2c(-c3ccccc3)cc(-c3ccccc3)cc2-c2ccccc21 (configuration not stated) label 1

Called result for CN1CCN(CCNc2ccc(CO)c3sc4ccccc4c(=O)c23)CC1 label 0

Called result for CCCCCCCCC(O)C#CC(N)=O (configuration not stated) label 0

Called result for Cc1cc(N(CCC#N)CCC#N)ccc1/C=C(/NC(=O)/C=C/c1ccccc1)C(N)=O label 0

Called result for c1ccc(NN=C(c2ccccn2)c2ccccn2)nc1 label 1

Called result for CCOC(=O)C(NC(=O)c1ccccc1)(Nc1ccc(S(=O)(=O)Nc2cc(C)on2)cc1)C(F)(F)F (configuration not stated) label 0
